System: DU-145 prostate
Assay: NCI tumour cell line growth inhibition, 48 h
READOUT_NAME: TGI

Task: TGI for `C/C1=C\[C@H](C)C[C@H](C)OC(=O)C[C@H](c2ccc(O)cc2)NC(=O)[C@H](Cc2ccc(O)c(I)c2)N(C)C(=O)[C@H](C)NC(=O)[C@@H](C)C1` ?
Result: > 25 µM

For every record below, what is its TGI?
1. CC(C)[C@]12O[C@H]1[C@@H]1O[C@@]13[C@@]1(C)CCC4=C(COC4=O)[C@@H]1C[C@@H]1O[C@@]13C2=O
2. C/C(=N\NC1=NCCN1)c1cn(C2=NCCN2)nc1C
3. Clc1ccc(CSc2ncnc3c2ncn3C2CCCCO2)cc1 (stereo not given)
4. N#CC1CNC(N)NC1N (stereo not given)
5. O=[N+]([O-])c1ccccc1S(=O)(=O)c1cc(O)cc2c1NCCC2
6. COC1CC(OC2C(C)OC(OC3C(C)OC(OC4C(C)OC(O[C@H]5CC[C@@]6(C)C(=CC[C@]7(O)[C@@H]6C[C@@H](OC(=O)/C=C(\C)C(C)C)[C@@]6(C)[C@]7(O)CC[C@@]6(O)C(C)=O)C5)CC4OC)CC3OC)CC2OC)OC(C)C1O (stereo not given in full)

Result:
["> 28.9 µM", "> 100 µM", "> 100 µM", "> 100 µM", "35.7 µM", "> 12.5 µM"]

For every record below, what is its TGI?
1. CCN1CCN(c2cc(C)nc(N(CCNc3ccnc4cc(Cl)ccc34)Cc3ccc4c(c3)OCO4)n2)CC1
2. CC1(C)OC2C(CO)OC(n3cnc(N)nc3=O)C2O1 (stereo not given)
3. Cn1ncc2[nH]cnc2c1=S
4. CC(=O)O[C@H]1CC2C(C3CCC(C(C)CCC(=O)O)[C@]31C)[C@H](OC(C)=O)C[C@@H]1CC3(CC[C@]21C)OOC1(CC[C@]2(C)C4C[C@H](OC(C)=O)[C@]5(C)C(C(C)CCC(=O)O)CCC5C4[C@H](OC(C)=O)C[C@@H]2C1)OO3 (stereo not given in full)

Result:
1: 7.25 µM; 2: > 100 µM; 3: > 100 µM; 4: 4.48 µM

Data origin, for the record: PubChem BioAssay (NCI)
